Test system: T47D
Test: Selectivity ratio of IC50 for progesterone receptor in human T47D cells to IC50 for glucocorticoid receptor in human A549 cells
Type: cell-based
Mark each entry yes (1) if its Ratio IC50 sits below 1, and no (0) for all others.

Check out these entries, answers already filled in.
Cpd Smiles: CC#C[C@]1(O)CC[C@H]2[C@@H]3CCC4=CC(=O)CCC4=C3[C@@H](c3ccc4oc(C)nc4c3)C[C@@]21C
Category: no (0)

Cpd Smiles: CC#C[C@]1(NC=O)CC[C@H]2[C@@H]3CCC4=CC(=O)CCC4=C3[C@@H](c3ccc4ocnc4c3)C[C@@]21C
Category: yes (1)

Cpd Smiles: CC#C[C@]1(O)CC[C@H]2[C@@H]3CCC4=CC(=O)CCC4=C3[C@@H](c3ccc4oc(C(F)(F)F)nc4c3)C[C@@]21C
Category: no (0)

Cpd Smiles: CC#C[C@]1(O)CC[C@H]2[C@@H]3CCC4=CC(=O)CCC4=C3[C@@H](c3ccc4oc(CC)nc4c3)C[C@@]21C
Category: no (0)

Query: I wonder whether CC#C[C@]1(O)CC[C@H]2[C@@H]3CCC4=CC(=O)CCC4=C3[C@@H](c3ccc(N(C)C)cc3)C[C@@]21C has Ratio IC50 below 1. Can you tell?
Response: yes (1)

Query: Would you kindly verify if Ratio IC50 of CC#C[C@]1(NC=O)CC[C@H]2[C@@H]3CCC4=CC(=O)CCC4=C3[C@@H](c3ccc4oc(C(F)(F)F)nc4c3)C[C@@]21C is strictly less than 1?
Response: yes (1)

Query: Does the reported Ratio IC50 of CC#C[C@]1(O)CC[C@H]2[C@@H]3CCC4=CC(=O)CCC4=C3[C@@H](c3ccc4ocnc4c3)C[C@@]21C stay below 1?
Response: no (0)

----------
Molecular target: Progesterone receptor (Homo sapiens, UniProt P06401)
Sequence (P06401 whole entry): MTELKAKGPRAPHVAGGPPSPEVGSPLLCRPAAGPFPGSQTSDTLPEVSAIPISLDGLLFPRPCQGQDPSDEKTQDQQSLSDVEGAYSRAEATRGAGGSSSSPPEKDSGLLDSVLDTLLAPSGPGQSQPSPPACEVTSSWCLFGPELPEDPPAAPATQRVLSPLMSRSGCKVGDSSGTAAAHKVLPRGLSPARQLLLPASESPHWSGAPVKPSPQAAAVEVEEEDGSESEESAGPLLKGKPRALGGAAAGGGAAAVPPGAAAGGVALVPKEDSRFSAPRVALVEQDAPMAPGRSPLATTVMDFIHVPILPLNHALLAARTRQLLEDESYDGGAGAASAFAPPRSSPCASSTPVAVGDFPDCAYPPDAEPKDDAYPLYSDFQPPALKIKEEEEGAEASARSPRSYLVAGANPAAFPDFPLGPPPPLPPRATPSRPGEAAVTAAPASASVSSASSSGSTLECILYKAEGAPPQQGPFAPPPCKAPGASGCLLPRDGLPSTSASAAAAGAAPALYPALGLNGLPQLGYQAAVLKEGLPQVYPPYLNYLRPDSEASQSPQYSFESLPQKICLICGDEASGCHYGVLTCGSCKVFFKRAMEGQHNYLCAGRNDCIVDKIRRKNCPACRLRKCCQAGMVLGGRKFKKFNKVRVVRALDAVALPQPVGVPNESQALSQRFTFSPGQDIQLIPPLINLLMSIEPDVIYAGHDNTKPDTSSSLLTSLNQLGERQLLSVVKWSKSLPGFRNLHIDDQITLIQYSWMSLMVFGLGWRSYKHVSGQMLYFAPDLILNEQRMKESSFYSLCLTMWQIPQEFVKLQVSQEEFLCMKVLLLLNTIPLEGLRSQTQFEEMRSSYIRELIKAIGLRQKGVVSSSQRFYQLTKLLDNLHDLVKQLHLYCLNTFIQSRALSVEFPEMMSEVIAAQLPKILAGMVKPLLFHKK
Test: Antagonist activity at progesterone receptor in human T47D cells assessed as inhibition of progesterone-induced alkaline phosphatase activity after 24 hrs by luminescence based assay
Mark criterion met only for IC50 values smaller than 0.07 µM; exact matches and larger values are criterion not met.

Worked cases, answers included:
Cpd Smiles: CC#C[C@]1(NC=O)CC[C@H]2[C@@H]3CCC4=CC(=O)CCC4=C3[C@@H](c3ccc4oc(C(F)(F)F)nc4c3)C[C@@]21C
Target Of Assay: Progesterone receptor (Homo sapiens, UniProt P06401)
Category: criterion met

Cpd Smiles: CC#C[C@]1(O)CC[C@H]2[C@@H]3CCC4=CC(=O)CCC4=C3[C@@H](c3ccc4ocnc4c3)C[C@@]21C
Target Of Assay: Progesterone receptor (Homo sapiens, UniProt P06401)
Category: criterion not met

Cpd Smiles: CC#C[C@]1(O)CC[C@H]2[C@@H]3CCC4=CC(=O)CCC4=C3[C@@H](c3ccc4oc(C)nc4c3)C[C@@]21C
Target Of Assay: Progesterone receptor (Homo sapiens, UniProt P06401)
Category: criterion met

Cpd Smiles: CC#C[C@]1(NC=O)CC[C@H]2[C@@H]3CCC4=CC(=O)CCC4=C3[C@@H](c3ccc4ocnc4c3)C[C@@]21C
Target Of Assay: Progesterone receptor (Homo sapiens, UniProt P06401)
Category: criterion met

Cpd Smiles: CC#C[C@]1(O)CC[C@H]2[C@@H]3CCC4=CC(=O)CCC4=C3[C@@H](c3ccc4oc(C(F)(F)F)nc4c3)C[C@@]21C
Target Of Assay: Progesterone receptor (Homo sapiens, UniProt P06401)
Category: criterion not met

Shift focus to the following entry.
Query: Item CC#C[C@]1(O)CC[C@H]2[C@@H]3CCC4=CC(=O)CCC4=C3[C@@H](c3ccc4oc(CC)nc4c3)C[C@@]21C : IC50 beneath 0.07 µM, strictly?
Response: criterion met
